Target: Regulator of G-protein signaling 4 (Homo sapiens)
Assay: RGS4-Galphao binding modulators, SAR follow-up, biochemical, multiplexed bead flow cytometry, SAR compounds (AID 2295)
Details: bead-based flow cytometry, RGS4-AF488 Galphao binding; measured here: Ki calculated from EC50
measured_parameter: Ki (nM)
Write the value in nM as a bare number.

Here's what some known entries look like.
COc1ccc(C2=CC(=O)C=CC2=O)cc1 ... 490
Cc1[nH]n(-c2ccccc2)c(=S)c1C=Nc1cccc([N+](=O)[O-])c1 ... 9370
CN1CCN(C2=C(Cl)C(=O)C(c3cnc(N4CCCCC4)s3)=C(Cl)C2=O)CC1 ... 290

Query: Fill in the blank: the reported Ki of `CCN=c1scc(C)n1/N=C/c1ccc(O)c(O)c1O` is ____.
Reply: 3000

Query: May I ask what Ki has been recorded for `O=C(Cc1csc(N2CCOCC2)n1)N/N=C/c1ccc(O)c(O)c1O` ?
Reply: 940

Query: Name the reported Ki value associated with the compound `O=C(COc1ccccc1C(=O)N/N=C/c1ccc(O)c(O)c1)N/N=C/c1ccc(O)c(O)c1`
Reply: 140
